Data origin: patent US7932283B2

Measured chromatographic logP of individual entries
- experiment.description: logP by HPLC on reversed-phase column (C 18), EEC Directive 79/B31 Annex V.A8, methods A and B
- Type: physicochemical
- test.conditions: reversed-phase HPLC column (C 18), HPLC reversed-phase C 18, method A: 43° C., 0.1% aqueous phosphoric acid, acetonitrile, linear gradient 10% to 90% acetonitrile
measure.name: chromatographic logP

input.smiles: Cc1ncc(C(=O)N(C2CC2)S(=O)(=O)c2ccc(O)c(O)c2)s1
reported: 3.33
//
input.smiles: Cc1nn(C)c(F)c1C(=O)N(C1CC1)S(=O)(=O)c1cccc(C(F)(F)F)c1
reported: 3.03
//
input.smiles: Cc1nc(C(=O)N(C2CC2)S(=O)(=O)c2ccc(C(F)(F)F)cc2)cs1
reported: 3.18
//
input.smiles: COc1nn(C)cc1C(=O)N(C1CC1)S(=O)(=O)c1ccccc1O
reported: 1.94
//
input.smiles: Cc1nn(C)c(F)c1C(=O)N(C1CC1)S(=O)(=O)c1ccc(O)cc1
reported: 2.83
//
input.smiles: Cc1nn(C)c(C)c1C(=O)N(C1CC1)S(=O)(=O)c1ccccc1O
reported: 2.17
//
input.smiles: Cc1nc(C(=O)N(C2CC2)S(=O)(=O)c2ccc(O)c(C(F)(F)F)c2)cs1
reported: 3.63
//
input.smiles: Cc1nn(C)c(F)c1C(=O)N(C1CC1)S(=O)(=O)c1ccccc1O
reported: 2.34
//
input.smiles: Cc1ccsc1C(=O)N(C1CC1)S(=O)(=O)c1cccc(O)c1
reported: 3.64
